assay: Time required for 50% release of KNI-727 at 37 degree celsius; assay type: ADME
Label scheme for T1/2: lower than 500 min is N, 500 min and above is Y.

[[record]]
chemical_structure = "Cc1cccc(C)c1OCC(=O)N[C@@H](Cc1ccccc1)[C@H](OC(=O)CCCC(=O)NCCN)C(=O)N1CSC(C)(C)[C@H]1C(=O)NC(C)(C)C.Cl"
assigned_label = "Y"

[[record]]
chemical_structure = "Cc1cccc(C)c1OCC(=O)N[C@@H](Cc1ccccc1)[C@H](OC(=O)CCC(=O)NCCN)C(=O)N1CSC(C)(C)[C@H]1C(=O)NC(C)(C)C.Cl"
assigned_label = "N"

[[record]]
chemical_structure = "Cc1cccc(C)c1OCC(=O)N[C@@H](Cc1ccccc1)[C@H](OC(=O)CCC(=O)NCC(N)=O)C(=O)N1CSC(C)(C)[C@H]1C(=O)NC(C)(C)C"
assigned_label = "N"

[[record]]
chemical_structure = "Cc1cccc(C)c1OCC(=O)N[C@@H](Cc1ccccc1)[C@H](OC(=O)CCC(N)=O)C(=O)N1CSC(C)(C)[C@H]1C(=O)NC(C)(C)C"
assigned_label = "Y"

[[record]]
chemical_structure = "Cc1cccc(C)c1OCC(=O)N[C@@H](Cc1ccccc1)[C@H](OC(=O)CC(C)(C)C(=O)NCCN)C(=O)N1CSC(C)(C)[C@H]1C(=O)NC(C)(C)C.Cl"
assigned_label = "N"

[[record]]
chemical_structure = "Cc1cccc(C)c1OCC(=O)N[C@@H](Cc1ccccc1)[C@H](OC(=O)CCC(=O)NCC(=O)O)C(=O)N1CSC(C)(C)[C@H]1C(=O)NC(C)(C)C"
assigned_label = "Y"

[[record]]
chemical_structure = "Cc1cccc(C)c1OCC(=O)N[C@@H](Cc1ccccc1)[C@H](OC(=O)CCC(=O)NCc1ccccc1)C(=O)N1CSC(C)(C)[C@H]1C(=O)NC(C)(C)C.Cl"
assigned_label = "Y"

[[record]]
chemical_structure = "Cc1cccc(C)c1OCC(=O)N[C@@H](Cc1ccccc1)[C@H](OC(=O)CCC(=O)NCCN(C)C)C(=O)N1CSC(C)(C)[C@H]1C(=O)NC(C)(C)C.Cl"
assigned_label = "N"

[[record]]
chemical_structure = "Cc1cccc(C)c1OCC(=O)N[C@@H](Cc1ccccc1)[C@H](OC(=O)CCC(=O)NCCC(=O)O)C(=O)N1CSC(C)(C)[C@H]1C(=O)NC(C)(C)C"
assigned_label = "Y"


###

Listed here are molecules together with their documented Solubility.
experiment: Water solubility of prodrug was determined; format: ADME; conditions: buffer
Parameter Measured: Solubility

[[record]]
chemical_structure = "Cc1cccc(C)c1OCC(=O)N[C@@H](Cc1ccccc1)[C@H](OC(=O)CCC(=O)NCCN)C(=O)N1CSC(C)(C)[C@H]1C(=O)NC(C)(C)C.Cl"
parameter_measured = "Solubility"
result = "115.4 mg/mL"

[[record]]
chemical_structure = "Cc1cccc(C)c1OCC(=O)N[C@@H](Cc1ccccc1)[C@H](OC(=O)CCC(=O)NCc1ccccc1)C(=O)N1CSC(C)(C)[C@H]1C(=O)NC(C)(C)C.Cl"
parameter_measured = "Solubility"
result = "< 0.0111 mg/mL"

[[record]]
chemical_structure = "Cc1cccc(C)c1OCC(=O)N[C@@H](Cc1ccccc1)[C@H](OC(=O)CCCC(=O)NCCN)C(=O)N1CSC(C)(C)[C@H]1C(=O)NC(C)(C)C.Cl"
parameter_measured = "Solubility"
result = "56.9 mg/mL"

